Hey, just so you know, these numbers are from paper PMC11480844.

B1: H2-Kb / B2 (parent)
chain 1: GEQVEQRPPHLSVREGDSAVIICTYTDPNSYYFFWYKQEPGAGLQLLMKVFSSTEINEGQGFTVLLNKKDKQLSLNLTAAHPGDSAVYFCAVSQMSNYNVLYFGSGTKLTVEP
chain 2: EAAVTQSPRNKVAVTGGKVTLSCNQTNNHNNMYWYRQDTGHGLRLIHYSYGAGSTEKGDIPDGYKASRPSQENFSLILELATPSQTSVYFCASGTGGSGQLYFGEGSKLTVL
chain 3: not shown
chain 4: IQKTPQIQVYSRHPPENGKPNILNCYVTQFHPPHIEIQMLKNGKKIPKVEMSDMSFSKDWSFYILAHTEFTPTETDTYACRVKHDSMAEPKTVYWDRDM
chain 5: SIINFEKL

Variants of: B1
Experiment: % of reporter cells activated (NFAT-GFP), raw; note: test concentration or dose not given here
Details: with B2; scale: % of reporter cells activated
Parameter threshold = 0.7. Response is Yes when ratio to parent meets or exceeds it, else No.

Field: example entries. Status: answers known.
| variant.code | qualitative.label |
| --- | --- |
| chain 5 I3R | No |
| chain 5 L8D | Yes |
| chain 5 I2W | Yes |
| chain 5 F5L | Yes |
| chain 5 E6A | No |
| chain 5 I3D | No |
| chain 5 K7N | Yes |
| chain 5 I2A | Yes |

Check the entry chain 5 I3K : does ratio to parent equal or exceed 0.7?
No

Check the entry chain 5 S1D : does ratio to parent equal or exceed 0.7?
Yes

Check the entry chain 5 L8Y : does ratio to parent equal or exceed 0.7?
Yes

Check the entry chain 5 S1H : does ratio to parent equal or exceed 0.7?
Yes

Check the entry chain 5 I3H : does ratio to parent equal or exceed 0.7?
No

Check the entry chain 5 N4T : does ratio to parent equal or exceed 0.7?
No

Check the entry chain 5 S1E : does ratio to parent equal or exceed 0.7?
Yes

Check the entry chain 5 I2V : does ratio to parent equal or exceed 0.7?
Yes

Check the entry chain 5 N4D : does ratio to parent equal or exceed 0.7?
No

Check the entry chain 5 L8R : does ratio to parent equal or exceed 0.7?
Yes

Check the entry chain 5 F5S : does ratio to parent equal or exceed 0.7?
Yes

Check the entry chain 5 I3V : does ratio to parent equal or exceed 0.7?
No
